// reported MIC80 against C. albicans 90028 for each item listed
System: C. albicans ATCC 90028
Experiment: MIC80 broth double-dilution assay
Type: cell-based
Conditions: YPAD medium, 30° C., 24 h
recorded-metric: MIC80 against C. albicans 90028 (µg/mL)

smiles-notation	reported-measurement
C[C@@H](C(=O)NC[C@@](O)(Cn1cncn1)c1ccc(F)cc1F)c1ccc(-c2ccccc2)c(F)c1	8
C[C@@H](C(=O)NC[C@](O)(Cn1cncn1)c1ccc(F)cc1F)c1ccc(-c2ccccc2)c(F)c1	0.12
O=C(NC[C@](O)(Cn1cncn1)c1ccc(F)cc1F)c1ccccc1O	0.25
C[C@H](C(=O)NC[C@](O)(Cn1cncn1)c1ccc(F)cc1F)c1cccc(C(=O)c2ccccc2)c1	2
CC(C)Cc1ccc([C@H](C)C(=O)NC[C@](O)(Cn2cncn2)c2ccc(F)cc2F)cc1	0.003
COc1ccc2cc([C@H](C)C(=O)NC[C@](O)(Cn3cncn3)c3ccc(F)cc3F)ccc2c1	0.25
C[C@H](C(=O)NC[C@@](O)(Cn1cncn1)c1ccc(F)cc1F)c1ccc(-c2ccccc2)c(F)c1	64
O=C(NC[C@@](O)(Cn1cncn1)c1ccc(F)cc1F)c1cccnc1Nc1cccc(C(F)(F)F)c1	16

Each recorded value in this set is attributed to patent US20250018048A1.
